Could you please report measured IC50 for the items listed next?
# subject-of-test: human PAC1 (Homo sapiens)
# test-summary: Filter binding assay, membranes of cells transiently transfected with human PAC1, 125I-labeled PACAP-27 tracer (Table 2)
# Design: expressed in transfected cells
# condition-details: read-out: Human PAC1 Receptor Binding
Where no end group is shown, it is not given here. [ ]: non-standard residue; d: D form. The star is where a group is joined. Hexanoyl = CCCCCC(=O)*; Aib = CC(C)(N)C(=O)O

Recorded IC50, per entry:
Hexanoyl-HSDAVFTDNYTRL[Aib]KQVAALKYLQSIKNKRYGGPSSGAPPPS [Agonist P259]; > 3 µM
Hexanoyl-HSDAVFTDNYTRLR[Aib]QVAAK[Aib]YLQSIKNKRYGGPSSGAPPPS [Agonist P264]; > 25 µM

The reported human PAC1 (Homo sapiens) IC50 of Hexanoyl-HSDAVFTDNYTRLR[Aib]QVAALKYLQSIKNKRYGGPSSGAPPPS [Agonist P265] is > 25 µM

* * *

# subject-of-test: human PAC1 (Homo sapiens, UniProt P41586)
# Sequence (P41586 21-468): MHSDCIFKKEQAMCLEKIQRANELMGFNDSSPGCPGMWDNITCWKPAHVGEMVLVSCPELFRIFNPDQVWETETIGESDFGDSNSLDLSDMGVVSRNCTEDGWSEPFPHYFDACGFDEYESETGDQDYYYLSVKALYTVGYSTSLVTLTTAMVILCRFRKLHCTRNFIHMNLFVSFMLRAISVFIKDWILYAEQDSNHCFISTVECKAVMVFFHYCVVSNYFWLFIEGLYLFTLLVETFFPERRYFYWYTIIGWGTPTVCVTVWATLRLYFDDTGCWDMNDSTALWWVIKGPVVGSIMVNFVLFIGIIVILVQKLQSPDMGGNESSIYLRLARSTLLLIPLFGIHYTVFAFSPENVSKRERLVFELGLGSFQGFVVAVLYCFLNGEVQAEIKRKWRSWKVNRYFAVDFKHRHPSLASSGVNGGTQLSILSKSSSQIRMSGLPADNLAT
# test-summary: Filter binding assay, membranes of cells transiently transfected with human PAC1, 125I-labeled PACAP-27 tracer (Table 2)
# Parameters: expressed in transfected cells
# condition-details: read-out: Human PAC1 Receptor Binding
Where no end group is shown, it is not given here. [ ]: non-standard residue; d: D form. The star is where a group is joined. Nle = CCCC[C@H](N)C(=O)O; Hexanoyl = CCCCCC(=O)*; Aib = CC(C)(N)C(=O)O
So I've got a bunch of substances here, and I need their IC50 values.

# per-item lookup of IC50; items listed below
1. Hexanoyl-HSDAVFTDNYTRL[Aib]KQVAAK[Aib]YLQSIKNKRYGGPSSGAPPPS [Agonist P244]
2. Hexanoyl-HSDAVFTDNYTRLR[Aib]QLAA[Aib]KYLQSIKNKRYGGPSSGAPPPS [Agonist P291]
3. Hexanoyl-HSDAVFTDNYTRLR[Aib]Q[Nle]AA[Aib]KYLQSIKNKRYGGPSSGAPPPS [Agonist P325]

["> 25 µM", "> 25 µM", "> 25 µM"]

* * *

# test-summary: Rat serum stability studies (remaining active peptide by DiscoveRx cAMP on CHO-VPAC2 cells)
# Type: in vitro ADME
# Experimental: Store the aliquot with aprotinin at 4° C. Store the aliquot without aprotinin at 37° C. […] […] Incubate in room temperature for 30 minutes. Remove the supernatant. […] Incubate on the shaker (300 rpm) for 1 hour. Proceed as normal with the DiscoveRx kit. Include cAMP standards in column 12. Determine EC50 values from the cAMP assay data.
Where no end group is shown, it is not given here. [ ]: non-standard residue; d: D form. The star is where a group is joined. Hexanoyl = CCCCCC(=O)*; Aib = CC(C)(N)C(=O)O
parameter-measured: Rat Serum Stability (Estimated purity in % after 72 hours) (%)
One number for each entry, in %.

Worked cases, Rat Serum Stability (Estimated purity in % after 72 hours) given:
Hexanoyl-HSDAVFTDNYTRL[Aib]KQVAAK[Aib]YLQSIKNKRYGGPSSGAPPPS [Agonist P244]; 6.2
Hexanoyl-HSDAVFTDNYTRL[Aib]KQVAA[Aib]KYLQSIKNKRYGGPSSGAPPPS [Agonist P242]; 3.8

Turning to the following substance.
The reported value for Hexanoyl-HSDAVFTDNYTRLR[Aib]QIAA[Aib]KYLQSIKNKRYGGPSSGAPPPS [Agonist P322] in terms of Rat Serum Stability (Estimated purity in % after 72 hours) is 1.3

Values compiled from patent US20080026996A1.
